tested on: HCC1569; test: cell number relative to DMSO (% of DMSO); higher = more cells (less growth inhibition / toxicity); conditions: concentration: 10 µM; 24 h
In this section, each of the molecules is paired with its reported cell number.

molecule	cell number
CC1CCC2C(C)(CO)C(O)CCC2(C)C12CCC(CO)(CCO)O2 (configuration not stated)	98.2
COc1ccc(-c2ccc3cc(C(=O)O)ccc3c2)cc1C12CC3CC(CC(C3)C1)C2	85.4
CCCCCCCCC=CCCCCCCCCCCCCC(=O)O [14(Z)-Tricosenoic acid]	100
C=C(C)C1CC=C(C(=O)O)CC1 (single isomer, unassigned; (-)) [(-)-Perillic acid]	104
CC1(C)NC(=O)N(c2ccc([N+](=O)[O-])c(C(F)(F)F)c2)C1=O [Nilutamide]	101
Cl.Nc1cc(Cl)c(NC2=NCCN2)c(Cl)c1 [p-Aminoclonidine hydrochloride]	100
NC(=O)c1noc([C@H](CCCC2CCCCC2)CC(=O)NO)n1	73.8
O=C1NC(=O)c2cc(Nc3ccc(F)cc3)c(Nc3ccc(F)cc3)cc21	95.1
CN[C@H](CC(=O)O)C(=O)O	104
c1ccc(-c2[nH]ncc2-c2ccnc3ccccc23)nc1	102
CC(=O)NC1C(N=C(N)N)C=C(C(=O)O)OC1C(O)C(O)CO (configuration not stated)	102
CCCCCCCCCCCCCC=CC(O)C(CO)NCCCCCCCC (configuration not stated)	105
COc1cc(O)c2c(=O)c(O)c(-c3ccc(O)c(O)c3)oc2c1	91.7
C=C(C)C1CCC2(C(=O)O)CCC3(C)C(CCC4C5(C)CCC(O)C(C)(C)C5CCC43C)C12 (configuration not stated)	101
CCCCCN(CCCCC)C(=O)C(CCC(=O)O)NC(=O)c1ccc(Cl)c(Cl)c1 (configuration not stated) [Lorglumide]	100
C[C@H]1C[C@H]2[C@@H]3CCC4=CC(=O)C=C[C@]4(C)[C@@]3(F)[C@@H](O)C[C@]2(C)[C@@]1(O)C(=O)COP(=O)([O-])[O-].[Na+].[Na+]	97.2
COc1ccccc1N1CCN(CCCCNC(=O)c2ccc3ccccc3c2)CC1	99.1

* * *

test system: HCC1569; experiment: H1.0 immunofluorescence intensity relative to DMSO (% of DMSO); higher = stronger H1.0 induction, active = 140 or more; conditions: concentration: 10 µM; 24 h

molecule	measured-target	H1.0 immunofluorescence intensity
CCCCCCCCC(=O)NCc1cc(OC)c(O)cc1I [N-(4-hydroxy-2-iodo-5-methoxybenzyl)nonanamide]	HCC1569	116
CC(C)(C)c1ccc(S(=O)(=O)C=CC#N)cc1	HCC1569	135
N[C@@H](Cc1ccc(F)cc1)C(=O)O [p-Fluoro-L-phenylalanine]	HCC1569	106
C1COC(NC(C2CC2)C2CC2)=N1 [Rilmenidine hemifumarate]	HCC1569	107
CCC=CCC=CCC=CCC=CCC=CCC=CCCC(=O)OC(COCCCCCCCCCCCCCCCC)COP(=O)([O-])OCC[N+](C)(C)C (stereo not given)	HCC1569	101

* * *

system: TDF; experiment: cell number relative to DMSO (% of DMSO); higher = more cells (less growth inhibition / toxicity); conditions: concentration: 10 µM; 24 h
In this section, each of the compounds is paired with its reported cell number.

compound	measured-target	cell number
CCN1CCCC1CNC(=O)c1c(OC)ccc(I)c1O (centres undefined)	TDF	91
CN1C2CCC1CC(NC(=O)c1nn(C)c3ccccc13)C2.O=C(O)C=CC(=O)O (centres undefined) [LY-278,584 maleate]	TDF	94.8
CCCCCC(O)C=CC=CCC=CCC=CCCCC(=O)O (centres undefined)	TDF	100
O=c1cc(-c2cccc3c2Sc2ccccc2S3)oc(N2CCOCC2)c1 [ATM Kinase Inhibitor]	TDF	109
CCCCCC(O)C=CC=CCCCCCCCCCC(=O)O (centres undefined)	TDF	90.3
O=C(O)C1CCCNC1C(=O)O (mixture of isomers)	TDF	110
CCCCCC=CCC=CCC(O)C=CC=CCCCC(=O)O (centres undefined)	TDF	90.4
CC(=O)N1CCN(c2ccc(OCC3COC(Cn4ccnc4)(c4ccc(Cl)cc4Cl)O3)cc2)CC1 (centres undefined) [Ketoconazole]	TDF	97.3
Cc1ccc2c(c1)C(N1CCN(C)CC1)=Nc1cccnc1N2	TDF	102
Cl.OCC1NCC(O)C(O)C1O (centres undefined) [1-Deoxynojirimycin hydrochloride]	TDF	106
Cl.Cl.NCCCCN [Putrescine dihydrochloride]	TDF	118
Cl.Cl.NCCNS(=O)(=O)c1cccc2cnccc12 [H-9 dihydrochloride]	TDF	90.7
O=C(O)C=Cc1cnc[nH]1 [4-Imidazoleacrylic acid]	TDF	107
COc1nc(C)nc(Cl)c1NC1=NCCN1.Cl [Moxonidine hydrochloride]	TDF	102
COc1ccccc1N1CCN(CCCCNS(=O)(=O)c2cccc3c(N(C)C)cccc23)CC1.O=C(O)C=CC(=O)O [Cortexolone maleate]	TDF	99.8
Cc1ccc(C)c(-c2cc(C(F)(F)F)nn2-c2ccc(S(N)(=O)=O)cc2)c1	TDF	96.8
CCCCCC(O)C=CC1C(O)CC(=O)C1CC=CCCCC(=O)O (centres undefined) [Prostaglandin E2]	TDF	102
COc1cc(Oc2ccnc3cc(OC)c(OC)cc23)ccc1NC(=O)NC(C)c1nccs1 (centres undefined)	TDF	47
C[C@@H](O)[C@H]1C(=O)N2C(C(=O)O)=C(SCCN=CN)C[C@H]12.O	TDF	104
